I'd appreciate it if you could supply HC50 values for the items below.
- Assay: Cytotoxicity against human RBC assessed as hemolysis
- Assay type: organism-based
- Run parameters: human red blood cells (RBC), read-out: LC50 (the source's name)
Non-standard residues stand in square brackets, D forms with d. Residues, ends and D or L forms follow the SMILES beside them. *: point of attachment. Palmitoyl = CCCCCCCCCCCCCCCC(=O)*; 12Ado = NCCCCCCCCCCCC(=O)O
A complete answer gives the number followed by the unit.

Provide one value: measured HC50 of CCCCCC/C=C\CCCCCCCC(=O)N[C@@H](CCCCN)C(=O)N[C@@H](CCCCN)C(=O)NCCCCCCCCCCCC(=O)N[C@@H](CCCCN)C(N)=O
8.5 µM

Provide one value: measured HC50 of CCCCCCCCCCCCCCCC(=O)N[C@@H](CCCCN)C(=O)N[C@@H](CCCCN)C(=O)NCCCCCCCCCCCC(=O)N[C@@H](CCCCN)C(N)=O (Palmitoyl-KK[12Ado]K-NH2)
15 µM
